# STUDY SYSTEM: spermidine synthase (Homo sapiens)
# Sequence (P19623 whole entry, species assumed): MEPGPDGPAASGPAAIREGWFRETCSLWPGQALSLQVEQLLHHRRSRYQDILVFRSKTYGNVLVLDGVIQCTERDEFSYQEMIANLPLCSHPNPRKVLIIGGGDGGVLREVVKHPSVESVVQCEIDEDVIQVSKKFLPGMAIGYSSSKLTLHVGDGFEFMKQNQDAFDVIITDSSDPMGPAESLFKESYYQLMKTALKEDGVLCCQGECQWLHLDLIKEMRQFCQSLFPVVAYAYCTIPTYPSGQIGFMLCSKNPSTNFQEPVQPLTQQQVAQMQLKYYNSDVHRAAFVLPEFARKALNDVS
# METHOD SUMMARY: Spermidine synthase inhibiting activity
# Format: biochemical
# ASSAY SETUP: pH 8.2, 37°, 10 min, 20 μM decarboxylated S-adenosyl-L-methionine
Counter-ions that a name gives are not always drawn.
READOUT: pIC50
Scale for pIC50: -log10 of concentration given in mol/L; no unit attached.

State, for spermidine synthase (Homo sapiens), measured pIC50 of the molecule listed here: NCCCCCC(CCN)SC[C@@H]1C[C@H](n2cnc3c(N)ncnc32)[C@@H](O)[C@H]1O (relative stereo) [Example 3, hydrochloride] 5.70
